target: PGR (gene 5241); assay: NVS_NR_hPR: NovaScreen (NVS) Nuclear Receptor Binding Assay for human Progestron Receptor (PR) (AID 2283360);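 also: active means loss of bound radioligand signal versus DMSO baseline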
Records with an inconclusive call do not appear. Active and inactive are the calls of the source. The calls were made as follows: active = hit-call score of the fitted dose curve at least 0.9, where 1 is the maximum; inconclusive = response in the unintended direction; inactive = score below 0.9.
Entry note: the call must match one of active, inactive

q: Given O=[N+]([O-])c1ccc(Nc2ccccc2)cc1 , state the outcome it received in this test.
a: active

q: Tell me the assay call for C[C@]12CC[C@@H](O)C[C@@H]1CC[C@@H]1[C@@H]2CC[C@]2(C)C(=O)CC[C@@H]12 please.
a: inactive

q: Record request — test call for Clc1cccc(Cl)c1Cl
a: inactive

q: I'd appreciate the recorded outcome for CCCCCCCCCCCCc1cccc(S(=O)(=O)O)c1 from this test.
a: active

q: Record request — test call for CCOP(=O)(OCC)OC(=CCl)c1ccc(Cl)cc1Cl
a: active

q: Please state the recorded outcome for this compound: O=C(N[C@H]1CN2CCC1CC2)c1ccc2c(c1)OCCO2
a: inactive

q: Which result was noted for this compound in the test: CCOC(=O)C(SP(=S)(OC)OC)c1ccccc1 (configuration not stated)
a: inactive

---

assay: ATG_PXRE_CIS: Attagene CIS-FACTORIAL HepG2 Assay for human Pregnane X Receptor Element (PXRE) (AID 2282957); conditions: HepG2 Attagene CIS-FACTORIAL PXRE reporter, mRNA; actives raise or lower the signal
Activity calls are given as the source filed them. Rule for the calls: active = hit-call score of the fitted dose curve at least 0.9, where 1 is the maximum; inactive = score below 0.9.
Respond using exactly one of the listed classes: active, inactive

q: Answer briefly: the call reported for Cc1ccc(CCl)cc1 in this assay.
a: inactive

q: Hi, sorry to bother you, what did the test record for BrCc1ccc(Br)cc1 ?
a: inactive

q: Call for entry CN(C)CCN(C)C :
a: inactive

q: Returns: the outcome recorded for BrCCCCBr in this assay.
a: inactive

q: Call for entry OCCCCO :
a: active

q: What did this assay record as the result for O=NN1CCOCC1 ?
a: active

q: What did this assay record as the result for CC(C)C(C)(N)C#N (stereo unspecified) ?
a: active

q: Status in this test for N#CCCC(Br)(C#N)CBr (stereo unspecified) ?
a: active

q: Field: outcome | Entry: CC(F)(F)CC(F)(F)F
a: inactive

q: Status in this test for OC[C@@H](O)[C@H]1O[C@@H]2O[C@H](C(Cl)(Cl)Cl)O[C@@H]2[C@H]1O ?
a: inactive

q: Assay outcome for O=C/C(Cl)=C(/Cl)C(=O)O : what was it?
a: active

q: How was CC(C)(C)c1ccccc1O classified in this test?
a: active

q: What classification did CN(CCCC(O)c1cccnc1)N=O (stereo unspecified) end up with in this test?
a: inactive

q: Please indicate how the test categorized CN(C1CCCCC1)C1CCCCC1 .
a: active

q: Assay result, entry c1ccc2sc(SNC3CCCCC3)nc2c1 — outcome?
a: active

q: Returns: the outcome recorded for CC(C)(C)c1ccc(CCOc2ncnc3ccccc23)cc1 in this assay.
a: active

---

assay: ATG_ERE_CIS: Attagene CIS-FACTORIAL HepG2 Assay for Estrogen Response Element (ERE) (AID 2282940); conditions: HepG2 ERE cis-reporter, Attagene RNA transcript; actives raise or lower the signal
Active and inactive are the calls of the source. How the source made its calls: active means hit-call score of the fitted dose curve at least 0.9, where 1 is the maximum; inactive means score below 0.9.
Entry note: the call must match one of active, inactive

q: What is the recorded call for this compound in the test? Cc1cccc(N=Nc2ccc(N(C)C)cc2)c1
a: inactive

q: Outcome? O=C(Cl)OCCOCCOC(=O)Cl
a: inactive

q: Could you check what this test reported for BrCc1ccc(Br)cc1 ?
a: inactive

q: Dear colleague, could you share the recorded outcome for COC(=O)c1cc(Oc2ccc(Cl)cc2Cl)ccc1[N+](=O)[O-] when you have a moment?
a: active

q: Please state the recorded outcome for this compound: ClCCN1CCOCC1
a: inactive

q: Assay result, entry CCC[CH2][Sn]([Cl])([Cl])[CH2]CCC — outcome?
a: active

q: Given CC(C)(C#N)N=NC(C)(C)C#N , state the outcome it received in this test.
a: inactive

q: What call does the record list for N#CCCC(Br)(C#N)CBr (stereo not given) ?
a: inactive

q: Dear all, I need the recorded test outcome for Nc1cccnc1 , thank you.
a: inactive

q: So what was the verdict on O=C(NC(=O)c1c(F)cccc1F)Nc1ccc(Cl)cc1 in this test?
a: inactive

q: # lookup: test call for C#CCOC(=O)/C=C(C)/C=C/CC(C)CCCC(C)C (stereo not given)
a: inactive

q: Any idea what this test logged for C=CCCl ?
a: inactive

q: Name the outcome recorded for CC(C)(C1CCC(O)CC1)C1CCC(O)CC1 (stereo not given) in the assay.
a: active

q: So what was the verdict on CNC(=O)CSP(=O)(OC)OC in this test?
a: inactive

q: // outcome(item) with item = CCCCC(CC)C(=O)Cl (stereo not given)
a: inactive
